For each entry below, report its %-inhibition of KIT(V560G) value.
molecular target: panel of more than 300 wild-type and mutant kinases (313 kinase panel) (Homo sapiens, UniProt P10721, V560G); test: Kinase profiling in a biochemical assay panel (mobility shift assays and ELISA), %-inhibition at 1 μM; selectivity entropy; settings: kinase KIT(V560G); compound at 1 μM
Sequence (P10721 26-976 V560G): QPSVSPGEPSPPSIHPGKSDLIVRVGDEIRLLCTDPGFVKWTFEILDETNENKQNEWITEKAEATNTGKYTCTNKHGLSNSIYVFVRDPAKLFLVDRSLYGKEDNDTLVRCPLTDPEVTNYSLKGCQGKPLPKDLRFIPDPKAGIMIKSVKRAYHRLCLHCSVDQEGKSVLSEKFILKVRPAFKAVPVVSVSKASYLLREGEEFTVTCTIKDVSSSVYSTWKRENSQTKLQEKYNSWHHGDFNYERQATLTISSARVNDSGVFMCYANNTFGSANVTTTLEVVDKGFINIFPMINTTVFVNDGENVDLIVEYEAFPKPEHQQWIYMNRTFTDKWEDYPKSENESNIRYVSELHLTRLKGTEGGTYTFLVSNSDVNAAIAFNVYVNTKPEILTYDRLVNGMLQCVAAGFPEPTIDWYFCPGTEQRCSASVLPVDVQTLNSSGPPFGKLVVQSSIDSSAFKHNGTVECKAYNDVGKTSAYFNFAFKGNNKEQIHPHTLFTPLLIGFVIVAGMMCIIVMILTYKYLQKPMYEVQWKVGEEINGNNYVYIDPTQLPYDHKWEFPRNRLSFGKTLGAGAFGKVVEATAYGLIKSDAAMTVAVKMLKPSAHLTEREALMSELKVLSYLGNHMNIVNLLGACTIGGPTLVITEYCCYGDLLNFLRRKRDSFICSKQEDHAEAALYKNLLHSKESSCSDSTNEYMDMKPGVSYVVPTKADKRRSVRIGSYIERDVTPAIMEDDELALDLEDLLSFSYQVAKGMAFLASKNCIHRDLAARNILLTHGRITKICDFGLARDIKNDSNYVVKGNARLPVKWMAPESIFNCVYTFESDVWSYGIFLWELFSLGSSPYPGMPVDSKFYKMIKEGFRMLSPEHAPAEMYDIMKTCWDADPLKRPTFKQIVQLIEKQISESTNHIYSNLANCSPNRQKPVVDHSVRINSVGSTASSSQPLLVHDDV
Express it in %; write the number only.

Request: Look up %-inhibition of KIT(V560G) for this compound: C[C@@H](Oc1cc(-c2cnn(C3CCNCC3)c2)cnc1N)c1c(Cl)ccc(F)c1Cl
Result: 0.851

Request: Next up: N#CC[C@H](C1CCCC1)n1cc(-c2ncnc3[nH]ccc23)cn1
Result: -7

Request: What do we get for CO[C@H]1C[C@@H]2CC[C@@H](C)[C@@](O)(O2)C(=O)C(=O)N2CCCC[C@H]2C(=O)O[C@H]([C@H](C)C[C@@H]2CC[C@@H](OC(=O)C(C)(CO)CO)[C@H](OC)C2)CC(=O)[C@H](C)/C=C(\C)[C@@H](O)[C@@H](OC)C(=O)[C@H](C)C[C@H](C)/C=C/C=C/C=C/1C ?
Result: -5

Request: Same again, this time with CCCS(=O)(=O)Nc1ccc(F)c(C(=O)c2c[nH]c3ncc(-c4ccc(Cl)cc4)cc23)c1F
Result: 32

----------
biological target: panel of more than 300 wild-type and mutant kinases (313 kinase panel) (Homo sapiens); experiment: Kinase profiling in a biochemical assay panel (mobility shift assays and ELISA), %-inhibition at 1 μM; selectivity entropy; settings: kinase CHK2; 1 μM compound
Could you please report measured %-inhibition, CHK2 for the items listed next?
Answer in %, number only, no unit symbol.

Request: Which %-inhibition, CHK2 value is on record for CC(=O)Nc1cccc(-n2c(=O)n(C3CC3)c(=O)c3c(Nc4ccc(I)cc4F)n(C)c(=O)c(C)c32)c1 [trametinib] ?
Result: -5

Request: Next up: CNC(=O)c1cc(Oc2ccc(NC(=O)Nc3ccc(Cl)c(C(F)(F)F)c3)c(F)c2)ccn1 [regorafenib]
Result: -2.11

Request: Let us now turn to Cc1cn(-c2cc(NC(=O)c3ccc(C)c(Nc4nccc(-c5cccnc5)n4)c3)cc(C(F)(F)F)c2)cn1 [nilotinib]
Result: -12

Request: Also check COc1cc2nccc(Oc3ccc(NC(=O)C4(C(=O)Nc5ccc(F)cc5)CC4)cc3)c2cc1OC [cabozantinib]
Result: 65

----------
Could you please report measured %-inhibition of PAK6 for the items listed next?
biological target: panel of more than 300 wild-type and mutant kinases (313 kinase panel) (Homo sapiens, UniProt Q9NQU5); assay: Kinase profiling in a biochemical assay panel (mobility shift assays and ELISA), %-inhibition at 1 μM; selectivity entropy; details: kinase PAK6; 1 μM
The figure you give is taken to be in %; do not add the unit.

Request: Consider the molecule shown here: Cc1ccc(Nc2nccc(N(C)c3ccc4c(C)n(C)nc4c3)n2)cc1S(N)(=O)=O What is its recorded %-inhibition of PAK6?
Result: 5.54

Request: Proceed to Cc1ccc(C(=O)Nc2ccc(CN3CCN(C)CC3)c(C(F)(F)F)c2)cc1C#Cc1cnc2cccnn12
Result: -3

Request: Now the molecule N#CC[C@H](C1CCCC1)n1cc(-c2ncnc3[nH]ccc23)cn1
Result: 3

Request: Try the molecule CO[C@H]1C[C@@H]2CC[C@@H](C)[C@@](O)(O2)C(=O)C(=O)N2CCCC[C@H]2C(=O)O[C@H]([C@H](C)C[C@@H]2CC[C@@H](OCCO)[C@H](OC)C2)CC(=O)[C@H](C)/C=C(\C)[C@@H](O)[C@@H](OC)C(=O)[C@H](C)C[C@H](C)/C=C/C=C/C=C/1C
Result: -1.22

Request: Input CO[C@H]1C[C@@H]2CC[C@@H](C)[C@@](O)(O2)C(=O)C(=O)N2CCCC[C@H]2C(=O)O[C@H]([C@H](C)C[C@@H]2CC[C@@H](OC(=O)C(C)(CO)CO)[C@H](OC)C2)CC(=O)[C@H](C)/C=C(\C)[C@@H](O)[C@@H](OC)C(=O)[C@H](C)C[C@H](C)/C=C/C=C/C=C/1C
Result: -6.47
